# System: Mus musculus
# Test summary: Antiinflammatory activity in ICR mouse assessed as inhibition of xylene-induced ear edema at 0.05 mmol/kg, po administered 30 mins before xylene challenge measured after 2 hrs relative to control
# Assay type: functional
Non-standard residues stand in square brackets, D forms with d. Residues, ends and D or L forms follow the SMILES beside them. Tpi = O=C(O)[C@@H]1Cc2c([nH]c3ccccc23)CN1
Note to self: values exactly at 30% are class 1. So inhibition in vivo at 50 µmol/kg at or above 30% is class 1, below is class 0.

>>> answer_label("N=C(N)NCCC[C@H](NC(=O)[C@@H]1Cc2c([nH]c3ccccc23)CN1)C(=O)N[C@@H](Cc1ccccc1)C(=O)N[C@@H](Cc1c[nH]c2ccccc12)C(=O)O (H-[Tpi]RFW-OH)")
"class 0"
>>> answer_label("NCCCC[C@H](NC(=O)[C@@H]1Cc2c([nH]c3ccccc23)CN1)C(=O)N[C@@H](Cc1ccccc1)C(=O)N[C@@H](Cc1c[nH]c2ccccc12)C(=O)O (H-[Tpi]KFW-OH)")
"class 0"
>>> answer_label("CC(C)C[C@H](NC(=O)[C@@H]1Cc2c([nH]c3ccccc23)CN1)C(=O)N[C@@H](Cc1ccccc1)C(=O)N[C@@H](Cc1c[nH]c2ccccc12)C(=O)O (H-[Tpi]LFW-OH)")
"class 1"
>>> answer_label("C[C@H](NC(=O)[C@@H]1Cc2c([nH]c3ccccc23)CN1)C(=O)N[C@@H](Cc1ccccc1)C(=O)N[C@@H](Cc1c[nH]c2ccccc12)C(=O)O (H-[Tpi]AFW-OH)")
"class 1"
>>> answer_label("O=C(O)[C@H](Cc1c[nH]c2ccccc12)NC(=O)[C@H](Cc1ccccc1)NC(=O)[C@H](Cc1ccc(O)cc1)NC(=O)[C@@H]1Cc2c([nH]c3ccccc23)CN1 (H-[Tpi]YFW-OH)")
"class 0"

* * *

# Test system: Mus musculus
# Test summary: Analgesic activity in ICR mouse assessed as increase in pain threshold at 0.15 mmol/kg, po after 30 mins by tail flick method (reference value: 5.03 +/- 10.26 %)
# Type: functional
Non-standard residues stand in square brackets, D forms with d. Residues, ends and D or L forms follow the SMILES beside them. Tpi = O=C(O)[C@@H]1Cc2c([nH]c3ccccc23)CN1
Assay endpoint: Activity

>>> recorded_value("O=C(CNC(=O)[C@@H]1Cc2c([nH]c3ccccc23)CN1)N[C@@H](Cc1ccccc1)C(=O)N[C@@H](Cc1c[nH]c2ccccc12)C(=O)O (H-[Tpi]GFW-OH)")
"10.36%"
>>> recorded_value("C[C@H](NC(=O)[C@@H]1Cc2c([nH]c3ccccc23)CN1)C(=O)N[C@@H](Cc1ccccc1)C(=O)N[C@@H](Cc1c[nH]c2ccccc12)C(=O)O (H-[Tpi]AFW-OH)")
"37.58%"
>>> recorded_value("NCCCC[C@H](N)C(=O)N[C@@H](Cc1ccccc1)C(=O)N[C@@H](Cc1c[nH]c2ccccc12)C(=O)O (H-Lys-Phe-Trp-OH)")
"20.16%"
>>> recorded_value("O=C(O)[C@H](Cc1c[nH]c2ccccc12)NC(=O)[C@H](Cc1ccccc1)NC(=O)[C@@H]1CCCN1C(=O)[C@@H]1Cc2c([nH]c3ccccc23)CN1 (H-[Tpi]PFW-OH)")
"23.17%"
>>> recorded_value("O=C(O)[C@H](Cc1c[nH]c2ccccc12)NC(=O)[C@H](Cc1ccccc1)NC(=O)[C@H](Cc1c[nH]c2ccccc12)NC(=O)[C@@H]1Cc2c([nH]c3ccccc23)CN1 (H-[Tpi]WFW-OH)")
"35.05%"
>>> recorded_value("O=C(O)[C@H](Cc1c[nH]c2ccccc12)NC(=O)[C@H](Cc1ccccc1)NC(=O)[C@H](Cc1ccc(O)cc1)NC(=O)[C@@H]1Cc2c([nH]c3ccccc23)CN1 (H-[Tpi]YFW-OH)")
"35.75%"
>>> recorded_value("O=C(O)C[C@H](NC(=O)[C@@H]1Cc2c([nH]c3ccccc23)CN1)C(=O)N[C@@H](Cc1ccccc1)C(=O)N[C@@H](Cc1c[nH]c2ccccc12)C(=O)O (H-[Tpi]DFW-OH)")
"22.17%"
>>> recorded_value("CC(C)C[C@H](NC(=O)[C@@H]1Cc2c([nH]c3ccccc23)CN1)C(=O)N[C@@H](Cc1ccccc1)C(=O)N[C@@H](Cc1c[nH]c2ccccc12)C(=O)O (H-[Tpi]LFW-OH)")
"48.25%"
>>> recorded_value("NCCCC[C@H](NC(=O)[C@@H]1Cc2c([nH]c3ccccc23)CN1)C(=O)N[C@@H](Cc1ccccc1)C(=O)N[C@@H](Cc1c[nH]c2ccccc12)C(=O)O (H-[Tpi]KFW-OH)")
"44.27%"
>>> recorded_value("NC(=O)C[C@H](NC(=O)[C@@H]1Cc2c([nH]c3ccccc23)CN1)C(=O)N[C@@H](Cc1ccccc1)C(=O)N[C@@H](Cc1c[nH]c2ccccc12)C(=O)O (H-[Tpi]NFW-OH)")
"21.24%"
>>> recorded_value("CC(C)C[C@H](N)C(=O)N[C@@H](Cc1ccccc1)C(=O)N[C@@H](Cc1c[nH]c2ccccc12)C(=O)O (H-Leu-Phe-Trp-OH)")
"25.38%"
>>> recorded_value("N=C(N)NCCC[C@H](NC(=O)[C@@H]1Cc2c([nH]c3ccccc23)CN1)C(=O)N[C@@H](Cc1ccccc1)C(=O)N[C@@H](Cc1c[nH]c2ccccc12)C(=O)O (H-[Tpi]RFW-OH)")
"38.16%"
>>> recorded_value("NC(=O)CC[C@H](NC(=O)[C@@H]1Cc2c([nH]c3ccccc23)CN1)C(=O)N[C@@H](Cc1ccccc1)C(=O)N[C@@H](Cc1c[nH]c2ccccc12)C(=O)O (H-[Tpi]QFW-OH)")
"41.83%"
>>> recorded_value("CC[C@H](C)[C@H](NC(=O)[C@@H]1Cc2c([nH]c3ccccc23)CN1)C(=O)N[C@@H](Cc1ccccc1)C(=O)N[C@@H](Cc1c[nH]c2ccccc12)C(=O)O (H-[Tpi]IFW-OH)")
"33.01%"
>>> recorded_value("O=C(O)[C@H](Cc1c[nH]c2ccccc12)NC(=O)[C@H](Cc1ccccc1)NC(=O)[C@H](Cc1ccccc1)NC(=O)[C@@H]1Cc2c([nH]c3ccccc23)CN1 (H-[Tpi]FFW-OH)")
"31.34%"
>>> recorded_value("CC(C)[C@H](NC(=O)[C@@H]1Cc2c([nH]c3ccccc23)CN1)C(=O)N[C@@H](Cc1ccccc1)C(=O)N[C@@H](Cc1c[nH]c2ccccc12)C(=O)O (H-[Tpi]VFW-OH)")
"39.47%"
>>> recorded_value("C[C@@H](O)[C@H](NC(=O)[C@@H]1Cc2c([nH]c3ccccc23)CN1)C(=O)N[C@@H](Cc1ccccc1)C(=O)N[C@@H](Cc1c[nH]c2ccccc12)C(=O)O (H-[Tpi]TFW-OH)")
"30.75%"
>>> recorded_value("CC(=O)Oc1ccccc1C(=O)O")
"32.85%"
>>> recorded_value("O=C(O)CC[C@H](NC(=O)[C@@H]1Cc2c([nH]c3ccccc23)CN1)C(=O)N[C@@H](Cc1ccccc1)C(=O)N[C@@H](Cc1c[nH]c2ccccc12)C(=O)O (H-[Tpi]EFW-OH)")
"18.24%"
>>> recorded_value("O=C(O)[C@H](Cc1c[nH]c2ccccc12)NC(=O)[C@H](Cc1ccccc1)NC(=O)[C@H](Cc1cnc[nH]1)NC(=O)[C@@H]1Cc2c([nH]c3ccccc23)CN1 (H-[Tpi]HFW-OH)")
"37.25%"
>>> recorded_value("O=C(O)[C@H](Cc1c[nH]c2ccccc12)NC(=O)[C@H](Cc1ccccc1)NC(=O)[C@H](CO)NC(=O)[C@@H]1Cc2c([nH]c3ccccc23)CN1 (H-[Tpi]SFW-OH)")
"30.56%"

* * *

# Test system: Mus musculus
# Test summary: Analgesic activity in ICR mouse assessed as increase in pain threshold at 0.15 mmol/kg, po after 180 mins by tail flick method (reference value: 8.75 +/- 9.73 %)
# Assay type: functional
Non-standard residues stand in square brackets, D forms with d. Residues, ends and D or L forms follow the SMILES beside them. Tpi = O=C(O)[C@@H]1Cc2c([nH]c3ccccc23)CN1
Assay endpoint: Activity (%)

>>> recorded_value("CC(C)[C@H](NC(=O)[C@@H]1Cc2c([nH]c3ccccc23)CN1)C(=O)N[C@@H](Cc1ccccc1)C(=O)N[C@@H](Cc1c[nH]c2ccccc12)C(=O)O (H-[Tpi]VFW-OH)")
16.03
>>> recorded_value("O=C(O)[C@H](Cc1c[nH]c2ccccc12)NC(=O)[C@H](Cc1ccccc1)NC(=O)[C@H](CO)NC(=O)[C@@H]1Cc2c([nH]c3ccccc23)CN1 (H-[Tpi]SFW-OH)")
25.07
>>> recorded_value("O=C(O)[C@H](Cc1c[nH]c2ccccc12)NC(=O)[C@H](Cc1ccccc1)NC(=O)[C@H](Cc1c[nH]c2ccccc12)NC(=O)[C@@H]1Cc2c([nH]c3ccccc23)CN1 (H-[Tpi]WFW-OH)")
14.23
>>> recorded_value("NCCCC[C@H](N)C(=O)N[C@@H](Cc1ccccc1)C(=O)N[C@@H](Cc1c[nH]c2ccccc12)C(=O)O (H-Lys-Phe-Trp-OH)")
8.41
>>> recorded_value("O=C(O)CC[C@H](NC(=O)[C@@H]1Cc2c([nH]c3ccccc23)CN1)C(=O)N[C@@H](Cc1ccccc1)C(=O)N[C@@H](Cc1c[nH]c2ccccc12)C(=O)O (H-[Tpi]EFW-OH)")
12.32
